# method: yeast display, Sf9 membrane polyspecificity reagent, FACS + sequencing; frameworks hold sequencing errors
property.name: polyreactivity (PSR sort gate)

ordered.residues	polyreactivity (PSR sort gate)
QVQLVESGGGLVQAGGSLRLSCAASGSIFYVYAMGWYRQAPGKERELVAAISRGGGSTSYADSVKGRFTISRDNAKNTVYLQMNSLKPEDTAVYYCNAYTYYHANHEQGFGYWGQGTQVTVSS	low polyreactivity
QVQLVESGGGLVQAGGSLRLSCAASGSTFATDAMGWYRQAPGTERELVAVISRSGGSTYYADSVKGRFTISRDNAKNTVYLQMNSLKPEDTAVYYCAARLVNKSRWGTLRYDYWGQGTQVTVSS	high polyreactivity
QVQLVESGGGLVQAGGSLRLSCAASGSIFVYYAMGWYRQAPGKERELVAAITWSSGRTYYADSVKGRFTISRDNAKNTVYLQMNSLKPEDTAVYYWNVLTRYYLGYDYWGQGTQVTVSS	high polyreactivity
QVQLVESGGGLVQAGGSLRLSCAASGNTFYWYVMGWYRQAPGKERELVARITSSGGSTNYADSVKGRFTISRDNAKNTVYLQMNSLKPEDTAVYYCAADDIYLYGGGTDYYYWGQGTQVTVSS	low polyreactivity
QVQLVESGGGLVQAGGSLRLSCAASGRIFGRNAMGWYRQAPGKERELVAAISWRGGNTYYADSVKGRFTISRDNAKNTVYLQMNSLKPEDTAVYYCNTVQYRNEMGYWGQGTQVTVSS	high polyreactivity

What does the data say about its polyreactivity (PSR sort gate)? Entry: QVQLVESGGGLVQAGGSLRLSCAANTMGCYRQAPGKERELVAAINTGSSTYYADSVKGRFRISRDNAKNTVYLQMYCLKPEDTAVYYCNASYPPYFEYRTRQYNYWGQGTQVTVSS
low polyreactivity

May I ask what polyreactivity (PSR sort gate) has been recorded for QVQLVESGGGLVQAGGSLRLSCAASGRIFVNYAMGWYRQAPVKERELVATITWSGGSTFYADSVKGRFTISRDNAKNTVYLQMNSLKPEDTAVYYCAQRGYVRSGLGRPYADDYWGQGTQLTVSS ?
low polyreactivity

polyreactivity (PSR sort gate) for QVQLVESGGGLVQAGGSLRLSCAASGRIFYNYAMGWYRQAPGKERELVAAISGSGGSTYYADSVKGRFTISRDNAKNSVYLQMNSLKPEDTAVYYCSTSGPQYYSRNFDYWGQGTQVTVSS ?
low polyreactivity

// lookup polyreactivity (PSR sort gate) for QVQLVESGGGLVQAGGSLRLSCAASGSIFYRNVMGWYRQAPGKERELVAAISQRGGSTYYADSVKGRFTISRDNAKNTVYLQMNSLKPEDTAVYYCNAASRGAGTSIWSWYDHWGQGTQVTVSS
low polyreactivity

So what's the measured polyreactivity (PSR sort gate) for this one? QVQIVESGGGLVQAGGSLRLSCAASGSIFYRYAMGWYRQAPGKERQLVAAISSGGTTSYADSVKGRFTISRDNAKNTVYLQMNSLKPEDTAVYYCAAFAYGYRYKTYDYWGQGTQVTVSS
high polyreactivity

Return reported polyreactivity (PSR sort gate); argument: QVQLVESGGGLVQAGGSLRLSCAASGLIFTSYAMGWYRQAPGKERELVAAISRGVRTYYADSVKGRFTISRDNAKNTVYLQMNSLKPEDTAVYYCAAAKPPPGKYDYWGQGTQVTVSS
high polyreactivity

Give the measured polyreactivity (PSR sort gate) of QVQLVESGGGLVQEGGSLRLSCAASGSIFDVYAMGWSRQGPGKERELVAAISSSGSTYYADSVKGRFTISRDNAKNTVYLQMNSLKPEDTAVYYCAAVQADDDDYYYWGQGTQVTVSS .
low polyreactivity

Data request, read-out polyreactivity (PSR sort gate), for QVQLVESGGGLVQAGGSLRLSCAASGRIFVHYAMGWYRQAPGKERELVAAITSGSSTNYADSVKGRFTISRDNAKNTVYLQMNSLKPEDTAVYYCAADYSVHMVRDRWFDYWGQGTQVTVSS
low polyreactivity

If you can, please state the reported polyreactivity (PSR sort gate) value of QVQLVESGGSLLQAGCSLRLSCAASGFIIAWYAMGWSRQAPGKEWELVAAISLSGGSTRYADSVKGRFTISRDNAKNPVYLQMNCLKPEDTAVYYCNVDRWASTEYDYWGQGTQVTVSS .
low polyreactivity

Reported polyreactivity (PSR sort gate) for QLQLVESGGGLVQAGGSLRLSCAASGSIFRINAMGWYRQEPGKESELVSAISTRSGRTYYADSVKVRFTISRDNSKNTVYLQMNSLKPEDTAVYYCARYRTQASGYGGYDYWGQGTQVTVSS : what is it?
high polyreactivity

Any idea what polyreactivity (PSR sort gate) was measured for QVQLVESGGGLVQAGGSLRLSCAASGRIFYIYAMGWSRQAPGKERELVASITSSGTSTYADSVKGRFTISRDNAKNTVYLQMNSLKPEDTAVYYCNARGYPKSWRYSRGYEYWGQGTQVTVSS ?
low polyreactivity

// returns reported polyreactivity (PSR sort gate) for input QVQLVESRGGIVQAGGSLRLISAASGRTFGWNAKGWYRQERGKERELVAAISLRGTSTYYADSVKGRFTISRDNAKNTVYLQMNSLKPEDTAVYYCNTLVYVPYHEDYWGQGTQVTVSS
high polyreactivity

Requested field: polyreactivity (PSR sort gate). Item: QVHLVESGGGLVQAGGSLRLSCAASGSTSYVYAMGWYRKAPGKERELVAAISGSGGRTYYADSVKGRFTISRDNAKNTVYLQMNSLKPEDTAVYYCNALPRPSYPFDYWGQGTQVTVSS
high polyreactivity

Recorded polyreactivity (PSR sort gate) of QVQLVESGGGLVQAGGSLRLTCAASGSTFDINAMGWYRQAPGKERELVASITFSGGSTYYADSVKGRFTISRDNAKNTVYLQMNSLKPEDTAVYYCAADSSGEYPRWLRYDYWGQGTQVTVSS , please.
low polyreactivity

# get_value(readout='polyreactivity (PSR sort gate)', item= QVQLVESGGGLVQAGGSLRLSCAPSGSTFYKNAMGWYRQAPWKERELVAGISRRGGRTYYADSVKGRFSISRDNAKNTVYLQMNSLKPEDTAVYYCNARLLSGPGYDYWGQGTQVTVSS )
low polyreactivity

Using the record for QVQLVESGGGLLQAGGILRLSCAASGFTFKYYVMGWYRQAPGKERELDAAITSSGSTYYADSVKGRFTISRDNAKNTVYLQINRLKPEDSAVYYCAAEGQSWQRWRYNYWGQGTQVTVSS , report its polyreactivity (PSR sort gate).
high polyreactivity

---

# method: yeast display, Sf9 membrane polyspecificity reagent, FACS + sequencing; frameworks hold sequencing errors
property.name: polyreactivity (PSR sort gate)

# example entries with known answers
ordered.residues	result
QVQLVESGGGLVQAGGSLRLSCAASGFTFPTYAMVWYRQAPGKERELVAAITRGGSTYYADSVKGRFTISRDNAKYTVYLQMNSLKPEDTAVYYCAADDPWYEEDYWGQGTQVTVSS	low polyreactivity
QVQLVESGGGLVQAGGSLRLSCAASGSTLRGNAMGWYRQAPGKERELVAAISWSGGITYYADSVKGRFTISRDNAKNTVYLQMNSLKPEDTAVYYCAVDRPRGGPTKYERRTKHGYWGQGTQVTVSS	low polyreactivity
QVQLVESGGGFVQAGGSLRLSCASSGRTFHYYAMGWYRQAPGKERELVAAISFDGGTTYYADSVKGRFTISRDNAKNTVYLHMNSPKPEDTAVYYCNALRYRDRVGYNYWGQGTQVTVSS	high polyreactivity
QVQLVESGGGLVQAGGSLRLSCAASGRTSYRYAMGWYRQAPGKERELVAAISWSGGSTYYADSVKGRFTISRDNAKNTVSLQMNSLKPDDTAVYYCNARQHQVRWWLREFDYWGQGTQVTVSS	low polyreactivity
QVQLVESGGGLVQAGGSLRLSCAASGSTFGRNAMGWYRQAPGKEREFVAAISSRGGRTSYADSVKGRFTISRDNAKNTVYLQMNSLKPEDTAVYYCATLGYFSASRTDYDYWGQGTQVTVSS	low polyreactivity

If you can, please state the reported polyreactivity (PSR sort gate) value of QVQLVESGGGLVQAGGSLRLSCAASGSIFVYNAMGWYRQAPGKERELVAAISSSGGSTYYADSVKGRFTISRDNAKNTVYLQMNSLKPEDTAVYYCAAEAVRKVPSYYSYAYYYWGQGTQVTVSS .
high polyreactivity

Using the record for HVQLVESGGGLVQAGGSLRLSCAASGYIFYVYAMGWYRQAPGKERELVAAINSGDITSYADSVKGRFTISRDNAKNTVYFQMNSLKPEDTAVYYCATVLILIYDYWGQGTQVTVSS , report its polyreactivity (PSR sort gate).
low polyreactivity

For the sequence QVQLVESGGGLVQAGGSLRLSCAASGSIFSENAMGWYRQAPGKERELVAAITGGASTNYADSVKGRFTISRDNAKNTVYLQMNSLKPEDNAVYYCNTGGPRGTTYDYWGQGTQVTVSS , what polyreactivity (PSR sort gate) is on record?
low polyreactivity

Tell me the measured polyreactivity (PSR sort gate) of QVQLVESGGGLVQAGGSLRLSCAASGSIFFPYAMGWYRQAPGKERELVAAIDTSSGSTYSADSVKGRFTISRDNAKNTVYLQMNSLKPEDTAVYYCAREALQYPGLKYNYWGQGTQVTVSS , please.
low polyreactivity

Item under review: QVQLVETGGGLVQAGGSLRLSCAASGSIFGAYAMGWYRQAPGKERELVAAITWTAGSTFYADSVKGRFTISRDNAKNTVYLQMNSLKPEDTAVYYCAAEYYTETQWSRYYRYYYWGQGTQVTVSS . Reported polyreactivity (PSR sort gate)?
low polyreactivity

Fill blank: measured polyreactivity (PSR sort gate) of the sequence QVQLVESGGGLVQAGGSLLLSCAASGSTFVVNAMAWYRQAPGKERELVAAIRNSGSTTYADSVKGRFTISRDNAKNTVYLQMNSLKPEDTAVYYCATDISATVTAVQINPYDYWGQGSQVTVSS is ____.
low polyreactivity

So what's the measured polyreactivity (PSR sort gate) for this one? QVQLVESGGGLVQAGGSLRLSCAATGIFVVYAMGWYREAPGKERELVAAIRSDASTNYADSVKGRFTISRDNAKNTVYLQMNILKPEDTAVYYCNTAQLVSDEFDYWGQGTQVTVSS
low polyreactivity

Value lookup for polyreactivity (PSR sort gate); key = QVQLVESGGGLVQAGGSLRLSCDASGSIFRYYGMGWYRQAPGKEREMVAVISYRGGSTYYADSVKGRFTISRDNAKNTVYLQMNSLKPEDTAVYYCIADDPSKLGYEHDYWGQGTQVTVSS
low polyreactivity

Which polyreactivity (PSR sort gate) value belongs to QVQLVESGGGLVQEGGSLRLSCAASGRTFDRYAMGWYRQAPGKERELVAAITWTGGSTYYADSVKGRFTISRDNAKNTVYLQMNSLKPEDTAFYYCNRAPSRPTSKTRLYYWGKGTQVTVSS ?
high polyreactivity

Consider the sequence QVQLVESGGGLVQAGGSLRLSCAASGLTFRNYAMGLYRQAPGKERELDAAISRSGGSTYYADSVKGRFTISRDYAKNTVYLHMNSLKPEDTAVYYCATRTYRESTYDYWGQGTQVTVSS and give its measured polyreactivity (PSR sort gate).
high polyreactivity

Bench note: what polyreactivity (PSR sort gate) did QVQLVESGGGLVQAGGSLRLSCAASGLILRKYAMGWYRQAPGKEREFVAAITQTGSRTYYADSVKGRFTISRDNAKNTVYLQMNSLKPEDTAVYYCNAVNYRSSRDSGYWGQGTQVTVSS show?
high polyreactivity

Item under review: QVQLVESGGGLVQAGGSLRISCAASGSIFRRYAMGWYSQAPGKERDLVATISSVTTTNYADSVKGRFTISRDNANNTVYLQMNSLKPEDTSVFYCAAVVYGQRRGPGQRKSYWGQGTQVTVSS . Reported polyreactivity (PSR sort gate)?
high polyreactivity

Query (sequence): QVQLVESGGGLVQAGGSLRLSCAASGIIFDDYAMGWYRQATGKERELVAVISSSGGNTYYADSVKVRFTISRDNAKNSVYLQMNSLKPEDTAVYYCAATYYYKSIYWFEYWGQGTQVTVSS ; field requested: polyreactivity (PSR sort gate)
low polyreactivity

Looking for the measured polyreactivity (PSR sort gate) of QVQLVETGGGLVQAGGSLRLSCAASGFNFGPYDIGWYIQAPGKERELVAAITDSSGSTHYADSVKGRFTISRDNAKNTVYLQMNSLKPEDTAVYYWAADDSSRTTYDYWGQGTQVTVSS , can you help?
low polyreactivity

Value lookup for polyreactivity (PSR sort gate); key = QVQLVESGGGLVQAGGSLRLSCAASGRNFYGYAMGWYRQAPGKERELVAAISWSGGSTYYADSVKGRFTISRDNAKNTVYLQMNSLKPEDTAVYYCARRYRGGYKYDYWGQGTQVTVSS
high polyreactivity

Quick one: polyreactivity (PSR sort gate) for QVQLVESGGGLVQAGGSLRLSCAASGIIFWYYAMGWYRQAPGIERELVAAISQSGGRTYYADSVKGRFTISRDNAKKTVYLQMNSLKPEDTAVYYCAAEPYTGYGYWGQGTQVTVSS ?
high polyreactivity
